All values here come from patent US20100272750A1.

tested_target: HLA DRB1*0405 (human)
protocol_notes: competition with 125I probe peptide, purified HLA; crude peptide batch
readout_label: pIC50
Entry type: numeric. Quantity: pIC50, the -log10 of concentration in molar units.

**Query** Look at this binder and give its reported pIC50. LQAIELQLTLETIYN (modifications not checked) [HPV16.E2.070 HTL epitope]
**Result** 6.42
